# System: A549
# ASSAY_METHOD_TEXT: NCI tumour cell line growth inhibition, 48 h
Calls of active or inactive are those of the source. Rule as the data show it: active = GI50 up to about 1.1 µM and inactive = higher.
Outcomes: yes (1) (active), no (0) (inactive)

# COMPOUND, SYSTEM, CLASS
records = [
    ("COc1ccc(-c2cc(O)c3cccnc3n2)cc1", "A549", "no (0)"),
    ("COc1ccc2c(c1)/C(=C\\c1c(Cl)nc3n1CCS3)C(=O)N2", "A549", "no (0)"),
    ("CC1=NN(C(=O)CC(=O)Nc2ccc(Cl)cc2)C(=O)C1/N=N\\c1ccc(S(=O)(=O)c2ccc(/N=N/C3C(=O)N(C(=O)CC(=O)Nc4ccc(Cl)cc4)N=C3C)cc2)cc1 (stereo unspecified)", "A549", "no (0)"),
    ("CCN(CCN(CC)C(=O)Nc1ccccc1)C(=O)Nc1ccccc1", "A549", "no (0)"),
    ("O=C(O)c1cc2ccccc2c(/N=N/c2ccc(S(=O)(=O)Nc3ncccn3)cc2)c1O", "A549", "no (0)"),
    ("N/C(=N\\Nc1ccc(S(N)(=O)=O)cc1)c1cnccn1", "A549", "no (0)"),
    ("CC(C)=C/C=C1/CS(=O)(=O)C=C1C", "A549", "no (0)"),
    ("CCOC(=O)CO/N=C1/C(=C2/C(=O)Nc3ccccc32)Nc2ccccc21", "A549", "no (0)"),
    ("COc1cc2c(c(OC)c1OC)-c1ccc(SC)c(=O)cc1[C@@H](NCc1ccccc1[N+](=O)[O-])CC2", "A549", "yes (1)"),
    ("CN(C)CC1CCCCCCCCCC(CN(C)C)C1=O (stereo unspecified)", "A549", "no (0)"),
    ("CN1c2ccccc2S(=O)(=O)n2c(COc3ccccc3)nnc21", "A549", "no (0)"),
]

###

# Test system: SF-268
# ASSAY_METHOD_TEXT: NCI tumour cell line growth inhibition, 48 h
The source made the active and inactive calls. No stated cut-off is given here; in the data, active = GI50 up to about 1.1 µM and inactive = higher.
Outcomes: active, inactive

# COMPOUND, CLASS
rows = [
    ("CC1(C)OCN(c2ccc(S(N)(=O)=O)cc2)Cn2c1nc1ccccc12", "inactive"),
    ("COc1ccc2c(=O)oc3c(OC)cc(CCN(C)C)c4c(=O)oc1c2c34", "inactive"),
    ("CC1=C(Cl)C=CP(=O)(Oc2ccccc2)C1 (stereo not drawn)", "inactive"),
    ("C(=N/NC1=NCCN1)/c1c2ccccc2c(/C=N\\NC2=NCCN2)c2ccccc12", "active"),
    ("CCC/C(Cl)=N/OC(=O)Nc1cc(C(F)(F)F)ccc1OC", "inactive"),
    ("CC(=O)Oc1cc2c[n+](C)c3c4cc(OC(C)=O)c(OC(C)=O)cc4ccc3c2cc1OC(C)=O", "active"),
    ("COc1cccc2c1C(=O)c1c(O)c3c(c(O)c1C2=O)C[C@@](O)(C(=O)CO)CC3OC1CC(NCCCC(OC(C)=O)OC(C)=O)C(O)C(C)O1 (stereo partly drawn)", "active"),
    ("COc1ccc2c(c1)C(=O)C(=O)c1cc(O)c(OC)c(OC)c1-2", "active"),
    ("COc1cc(C(O)C(=O)c2nc3ccc([N+](=O)[O-])cc3nc2O)ccc1O (stereo not drawn)", "inactive"),
    ("CC(C)(C)C(=O)OCC1CCC(n2cnc3c(=O)[nH]c(N)nc32)O1 (stereo not drawn)", "inactive"),
    ("COc1ccc(-c2cc(O)c3cccnc3n2)cc1", "inactive"),
    ("FC(F)(F)c1ccc2c(c1)nc(Cc1ccc(Cl)cc1)n2CC1CCCN2CCCCC12 (stereo not drawn)", "inactive"),
    ("COc1ccc(-c2sc(Br)c3c2C(=O)C2OC(=O)NC32)cc1OC (stereo not drawn)", "inactive"),
    ("CCC12CC(c3ccccc3)C(C(=O)N1)C(=O)N2 (stereo not drawn)", "inactive"),
    ("O=C1CC(c2ccccc2Cl)C2(C(=O)NC(=S)NC2=O)C(c2ccccc2Cl)C1 (stereo not drawn)", "inactive"),
    ("Cc1ccc(/C=N/Nc2ncccn2)s1", "inactive"),
    ("CC1(C)SC2C(NC(=O)Cc3ccccc3)C(=O)N2C1C(=O)O (stereo not drawn)", "inactive"),
    ("COc1ccc2[nH]c3c(C)c4c(c(C)c3c2c1)CN(C)C=C4", "active"),
    ("Nn1c(CCCl)nc2c(Br)cc(Br)cc2c1=O", "inactive"),
    ("CCN(CCN(CC)C(=O)Nc1ccccc1)C(=O)Nc1ccccc1", "inactive"),
    ("N=C(N)N/N=C/c1c(-c2ccc(Cl)cc2)nc2n1CCS2", "inactive"),
    ("NC(=O)NO [HYDROXYUREA]", "inactive"),
    ("NC(=O)c1ncn(Cc2ccccc2)c1CNC(N)=S", "inactive"),
]
